# credit: PubChem BioAssay (NCI)

Some compounds, each annotated with its measured TGI.
# Tested on: HOP-62 NSCLC
# MEASUREMENT NOTES: NCI tumour cell line growth inhibition, 48 h

Ask: What value of TGI has been reported for the following compound? O=C(CNc1cccc([N+](=O)[O-])c1)Nn1c(-c2ccccc2)nc2ccccc2c1=O
Result: 4.25 µM

Ask: Query: TGI; subject: c1ccc(N=C(Nc2ccccc2)N2CCCCC2)cc1
Result: > 100 µM

Ask: Quick one: TGI of O=C1CCCCCCCC/C=C\CC(c2ccco2)O1 (configuration not stated) ?
Result: 62.3 µM

Ask: Recorded TGI of NC(N)=N/N=C\c1cccc(OCc2ccccc2)c1 , please.
Result: 19.1 µM

Ask: // lookup TGI for Nc1nc(N)c(C2=CCNCC2)c(=O)[nH]1
Result: > 100 µM

Ask: # query: TGI of entry O=c1ccc2nc(-c3ccccc3)nn(-c3ccccn3)c-2c1
Result: 82.9 µM

Ask: Item CC(C)c1ccc(C2C3=C(N=C4SCC(=O)N42)C(=O)c2ccccc23)cc1 (configuration not stated) has what recorded TGI?
Result: > 100 µM

Ask: What measured TGI goes with CC(=O)OCC(OC(C)=O)C(OC(C)=O)C(OC(C)=O)C(C=NN(C(C)=O)S(=O)(=O)c1ccc(/C=C2\NC(=O)N(C)C2=O)cc1)OC(C)=O (configuration not stated) ?
Result: > 100 µM

Ask: Given COC(=O)Nc1nc2cc(OC)c(OC)cc2c(=O)[nH]1 , state its recorded TGI.
Result: > 100 µM

Ask: Dear colleague, I am looking for the recorded TGI of the following compound: Oc1ccccc1C=NCc1ccco1
Result: > 100 µM

Ask: Request the reported TGI associated with O=C(CO)CC(=O)C(=O)Nc1ccccc1
Result: > 100 µM

Ask: // TGI lookup, key: COc1cc(/C=C2\C[C@H]3[C@@H]4CC=C5C=C(N6CCCC6)CC[C@]5(C)[C@H]4CC[C@]3(C)C2=O)cc(OC)c1OC
Result: 7.17 µM

Ask: What TGI value was documented for this compound, COc1ccccc1CCN=C1NC(=O)/C(=C/c2ccc3ncccc3c2)S1 ?
Result: > 25 µM

Ask: Looking for the measured TGI of N=C(c1ccc2ccccc2c1)c1ccccc1Cc1ccccc1 , can you help?
Result: > 100 µM

Ask: Name the reported TGI value associated with the compound CCC1(c2c(F)c(F)c(N)c(F)c2F)CCC(=O)NC1=O (configuration not stated)
Result: > 100 µM

Ask: Look at this compound and give its reported TGI. CC(C)(C)OC(=O)c1cnc(Cl)cn1
Result: > 100 µM

Ask: // returns reported TGI for input CC(C)(C)c1cc(C(C)(C)C)c(SS(=O)(=O)O)c(O)c1O
Result: > 100 µM

----------
# System: OVCAR-8 ovarian
# MEASUREMENT NOTES: NCI tumour cell line growth inhibition, 48 h; in the data active = GI50 below about 0.43 µM; inactive = the rest
Allowed answers: TRUE = active, FALSE = inactive

Solved cases below.
COc1cc2c3c(n(CCCN)c(=O)c2cc1OC)-c1cc2c(cc1/C3=C\CCN)OCO2 : FALSE
O=C1C(Cl)=C(Nc2cccc(Cl)c2)C(=O)N1Cc1ccccc1Cl : FALSE
O=C1NC(O)C(c2c[nH]c3ccccc23)=C1c1c[nH]c2ccccc12 (stereo unspecified) : FALSE
O=C1C(=O)c2ccccc2C(O)=C1CC=C(Br)Br : FALSE
O=c1c2ccccc2n(C[C@H]2CO2)c2ccccc12 : FALSE

Ask: What did the test return for COc1cc(C)c(Cl)cc1C1=NN(c2ccc(S(N)(=O)=O)cc2)C(/C=C/c2ccccc2)C1 (stereo unspecified) ?
Result: FALSE

Ask: Call for entry O=C(Nc1cccc(Cl)c1)c1ccc(NC2=C(Cl)C(=O)N(Cc3ccccc3)C2=O)cc1 :
Result: FALSE
